# system tested: Histidine tagged HIF-2α protein containing PAS-B domain (240-350) (Homo sapiens)
# Construct: HIF-2α protein containing PAS-B domain (240-350); made in house
# Sequence (Q99814 240-350): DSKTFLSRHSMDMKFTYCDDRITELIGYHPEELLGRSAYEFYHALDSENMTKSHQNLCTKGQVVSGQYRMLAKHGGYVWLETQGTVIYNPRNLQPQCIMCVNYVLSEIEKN
# protocol description: HIF-2α Scintillation Proximity Assay (SPA) binding assay
# condition parameters: Table 1; 50 nM HIF-2α protein, 25 nM 3H-tracer
Catalogue of IC50 readings, one per entry.

Incoming: Bench note: what IC50 did N#Cc1cc(F)cc2c1[C@@H](c1ccc(C(F)(F)F)c3c1OC(F)(F)[C@H]3O)CCC2 show?
Outgoing: < 100 nM

Incoming: Bench note: what IC50 did COc1cc(F)cc2c1N(c1ccc(S(=O)(=O)C(F)(F)F)c(C#N)c1Cl)CCC2 show?
Outgoing: > 1000 nM

* * *

# system tested: HIF-2α (Homo sapiens)
# Construct: host or cells: 786-O cells stably transduced with Cignal Lenti HIF Luc Reporter (only the reporter was introduced, not HIF-2α)
# protocol description: HIF-2α luciferase reporter assay in HIF-Luc-786-O cells
# Type: cell-based
# condition parameters: Table 3, 20 hours incubation
pIC50: −log10 of the molar value.
measure: pIC50

Guide cases for pIC50, answers given:
smiles entry | pIC50
Cc1ncn(C)c1-c1ccc([C@H]2CC[C@H](F)c3cc(F)cc(C#N)c32)c2c1[C@H](O)C(F)(F)C2 | > 7.00
N#Cc1cc(F)cc2c1[C@@H](c1ccc(-c3ccncc3)c3c1CC(F)(F)[C@H]3O)CC[C@@H]2F | 6.00 to 7.00

Incoming: Bench note: what pIC50 did Cn1nccc1-c1ccc([C@H]2C[C@H](F)[C@H](F)c3cc(F)cc(C#N)c32)c2c1[C@H](O)C(F)(F)C2 show?
Outgoing: > 7.00

Incoming: Bench note: what pIC50 did N#Cc1cc(F)cc2c1[C@@H](c1ccc(-c3cccc4cn[nH]c34)c3c1CC(F)(F)[C@H]3O)CC[C@@H]2F show?
Outgoing: > 7.00

* * *

# system tested: HIF-2α (Homo sapiens, UniProt Q99814)
# Construct: host or cells: 786-O cells stably transduced with Cignal Lenti HIF Luc Reporter (only the reporter was introduced, not HIF-2α)
# Sequence (Q99814 whole entry): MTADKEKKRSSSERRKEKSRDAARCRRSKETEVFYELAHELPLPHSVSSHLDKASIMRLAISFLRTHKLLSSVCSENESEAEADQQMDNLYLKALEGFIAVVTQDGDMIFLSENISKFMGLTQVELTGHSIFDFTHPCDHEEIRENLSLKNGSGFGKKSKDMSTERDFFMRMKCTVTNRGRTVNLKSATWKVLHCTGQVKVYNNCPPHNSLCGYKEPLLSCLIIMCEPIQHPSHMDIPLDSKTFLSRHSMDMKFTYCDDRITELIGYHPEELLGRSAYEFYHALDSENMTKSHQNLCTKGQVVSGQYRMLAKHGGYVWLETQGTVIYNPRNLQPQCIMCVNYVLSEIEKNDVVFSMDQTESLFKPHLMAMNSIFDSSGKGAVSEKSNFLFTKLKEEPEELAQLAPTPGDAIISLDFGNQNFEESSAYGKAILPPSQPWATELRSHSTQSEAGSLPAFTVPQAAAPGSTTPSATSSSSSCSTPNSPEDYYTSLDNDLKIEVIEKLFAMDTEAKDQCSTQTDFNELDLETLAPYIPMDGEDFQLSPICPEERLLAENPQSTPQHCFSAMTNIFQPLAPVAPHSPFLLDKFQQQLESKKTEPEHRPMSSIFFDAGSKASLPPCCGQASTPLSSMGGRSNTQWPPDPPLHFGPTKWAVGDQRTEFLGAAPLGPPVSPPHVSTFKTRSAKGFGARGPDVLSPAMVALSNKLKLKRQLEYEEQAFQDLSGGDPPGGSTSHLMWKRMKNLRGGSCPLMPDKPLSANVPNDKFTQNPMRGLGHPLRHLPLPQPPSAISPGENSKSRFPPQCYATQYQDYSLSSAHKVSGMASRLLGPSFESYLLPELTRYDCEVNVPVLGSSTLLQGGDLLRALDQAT
# protocol description: HIF-2α luciferase reporter assay in HIF-Luc-786-O cells
# Format: cell-based
# condition parameters: Table 2, 20 hours incubation
pIC50: −log10 of the molar value.
Catalogue of pIC50 readings, one per entry.

compound | pIC50
COC1CCN(c2ccc(C(C)(F)F)c(F)c2C#N)c2c(C#N)cc(F)cc21 (centres unmarked) | > 7.00

Incoming: Bench note: what pIC50 did N#Cc1cc(F)cc2c1[C@@H](c1ccc(C(F)(F)F)c3c1C(=O)OC3)CC[C@@H]2F show?
Outgoing: > 7.00

Incoming: Bench note: what pIC50 did CS(=O)(=O)c1ccc(N2CCC(F)c3cc(F)cc(C#N)c32)c(C#N)c1Cl (centres unmarked) show?
Outgoing: > 7.00

Incoming: Bench note: what pIC50 did N#Cc1cc(F)cc2c1[C@@H](c1ccc(C(F)(F)F)c(Cl)c1C#N)CC[C@@H]2F show?
Outgoing: > 7.00

Incoming: Bench note: what pIC50 did Cn1nccc1-c1ccc([C@H]2CC[C@H](F)c3cc(F)cc(C#N)c32)c2c1[C@H](O)C(F)(F)C2 show?
Outgoing: > 7.00

Incoming: Bench note: what pIC50 did N#Cc1cc(F)cc2c1N(c1ccc(C(F)(F)F)c(F)c1C#N)CC[C@@H]2F show?
Outgoing: > 7.00

Incoming: Bench note: what pIC50 did CS(=O)(=O)c1ccc([C@H]2CCC(F)(F)c3cc(F)cc(C#N)c32)c2c1[C@H](O)[C@H](F)C2 show?
Outgoing: > 7.00

Incoming: Bench note: what pIC50 did N#Cc1cc(F)cc2c1N(c1ccc(C(F)(F)F)c(F)c1C#N)CCC2C#N (centres unmarked) show?
Outgoing: > 7.00
